measuredOn: Histone deacetylase 9 (Homo sapiens, UniProt Q9UKV0)
Sequence (Q9UKV0 whole entry): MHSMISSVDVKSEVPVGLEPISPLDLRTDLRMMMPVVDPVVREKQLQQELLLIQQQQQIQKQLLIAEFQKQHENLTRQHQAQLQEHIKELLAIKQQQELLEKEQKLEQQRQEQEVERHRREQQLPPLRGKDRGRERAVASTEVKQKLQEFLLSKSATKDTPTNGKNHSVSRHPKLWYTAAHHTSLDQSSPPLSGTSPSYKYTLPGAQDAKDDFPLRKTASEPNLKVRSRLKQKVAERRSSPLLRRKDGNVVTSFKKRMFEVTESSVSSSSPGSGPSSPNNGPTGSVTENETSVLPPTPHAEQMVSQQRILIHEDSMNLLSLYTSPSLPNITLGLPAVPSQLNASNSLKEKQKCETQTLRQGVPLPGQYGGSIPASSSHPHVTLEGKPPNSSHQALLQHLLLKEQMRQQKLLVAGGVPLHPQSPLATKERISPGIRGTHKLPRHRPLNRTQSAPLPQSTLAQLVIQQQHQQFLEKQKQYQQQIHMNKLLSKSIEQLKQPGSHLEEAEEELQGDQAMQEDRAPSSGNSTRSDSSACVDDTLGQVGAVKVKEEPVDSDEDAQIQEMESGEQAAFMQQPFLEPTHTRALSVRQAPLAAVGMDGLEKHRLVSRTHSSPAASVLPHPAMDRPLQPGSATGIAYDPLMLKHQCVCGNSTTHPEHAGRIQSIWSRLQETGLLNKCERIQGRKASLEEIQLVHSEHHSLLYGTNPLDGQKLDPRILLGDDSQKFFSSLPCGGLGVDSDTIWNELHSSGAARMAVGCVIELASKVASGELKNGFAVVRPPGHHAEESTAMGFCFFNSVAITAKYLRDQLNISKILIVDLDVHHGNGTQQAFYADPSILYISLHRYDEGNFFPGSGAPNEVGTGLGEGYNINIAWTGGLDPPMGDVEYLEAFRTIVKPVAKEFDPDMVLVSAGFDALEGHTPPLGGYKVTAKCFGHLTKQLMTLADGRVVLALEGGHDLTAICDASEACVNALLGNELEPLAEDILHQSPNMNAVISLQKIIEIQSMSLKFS
experimentalDetails: Inhibition of recombinant HDAC9 (unknown origin) using Boc-Lys (trifluoroacetyl)AMC as substrate preincubated for 1 hrs followed by substrate addition and measured after 2 hrs by fluorescence based microplate reader analysis
measuredQuantity: IC50 (nM)
Provide the reading as a plain figure in nM.

Query: Provide value of IC50 for this record tested with Histone deacetylase 9 (Homo sapiens, UniProt Q9UKV0): `CCNNC(=O)c1ccc(CN2c3ccccc3C=Cc3ccncc32)c(F)c1`
Response: 2270

----------
measuredOn: Histone deacetylase 1 (Homo sapiens, UniProt Q13547)
Sequence (Q13547 whole entry): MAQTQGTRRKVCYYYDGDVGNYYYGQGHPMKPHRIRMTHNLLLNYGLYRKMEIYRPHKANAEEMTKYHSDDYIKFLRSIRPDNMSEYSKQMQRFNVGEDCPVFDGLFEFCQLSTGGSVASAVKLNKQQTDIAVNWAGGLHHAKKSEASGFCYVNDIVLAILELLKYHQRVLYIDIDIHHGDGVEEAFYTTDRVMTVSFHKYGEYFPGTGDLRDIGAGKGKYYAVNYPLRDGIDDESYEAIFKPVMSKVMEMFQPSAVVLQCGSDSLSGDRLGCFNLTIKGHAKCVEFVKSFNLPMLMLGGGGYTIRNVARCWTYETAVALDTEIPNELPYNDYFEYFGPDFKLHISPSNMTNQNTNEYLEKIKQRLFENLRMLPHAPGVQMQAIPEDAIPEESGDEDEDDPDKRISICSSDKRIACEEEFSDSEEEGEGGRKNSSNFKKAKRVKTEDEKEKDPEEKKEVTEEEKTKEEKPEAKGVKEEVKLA
experimentalDetails: Inhibition of recombinant HDAC1 (unknown origin) using Boc-Lys (acetyl)-AMC as substrate preincubated for 1 hrs followed by substrate addition and measured after 2 hrs by fluorescence based microplate reader analysis
pIC50: −log10 of the molar value.
measuredQuantity: pIC50

# count of solved cases: 3
1. CCNNC(=O)c1cc(F)c(CN2c3ccccc3C=Cc3ccncc32)c(F)c1; < 5.00
2. O=C(NNCCF)c1ccc(CN2c3ccccc3C=Cc3ccncc32)cc1; < 5.00
3. CCNNC(=O)c1ccc(CN2c3ccccc3C=Cc3ccncc32)cc1F; < 5.00

Query: Endpoint output: pIC50 of `CCNNC(=O)c1cc(F)c(CNc2cccc3cccnc23)cc1F` . Value?
Response: < 5.00

Query: Recorded pIC50 for `CCNNC(=O)c1cc(F)c(Cn2c3ccccc3c3cccnc32)cc1F` , please?
Response: < 5.00

Query: Quick one: pIC50 of `CCNNC(=O)c1cc(F)c(CN2c3ccccc3C=Cc3ccncc32)cc1F` ?
Response: < 5.00

Query: Could you share which pIC50 value was measured for `CCNNC(=O)c1cc(F)c(Cn2c3ccccc3c3ccccc32)cc1F` ?
Response: < 5.00

----------
Reported values of pIC50 for individual entries
measuredOn: Histone deacetylase 3 (Homo sapiens)
Sequence (O15379 whole entry): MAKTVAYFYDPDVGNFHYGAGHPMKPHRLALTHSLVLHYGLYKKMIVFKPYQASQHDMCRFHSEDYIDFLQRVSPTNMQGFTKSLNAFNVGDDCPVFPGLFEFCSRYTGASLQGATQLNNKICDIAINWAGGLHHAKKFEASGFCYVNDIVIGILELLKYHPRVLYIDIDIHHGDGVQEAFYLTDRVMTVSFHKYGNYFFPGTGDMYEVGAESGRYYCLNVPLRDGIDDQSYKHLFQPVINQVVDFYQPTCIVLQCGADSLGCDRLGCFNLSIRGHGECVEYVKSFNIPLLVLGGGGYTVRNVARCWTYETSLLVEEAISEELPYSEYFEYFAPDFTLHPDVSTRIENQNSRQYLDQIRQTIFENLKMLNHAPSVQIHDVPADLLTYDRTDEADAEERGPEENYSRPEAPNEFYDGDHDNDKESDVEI
experimentalDetails: Inhibition of recombinant HDAC3 (unknown origin) using Boc-Lys (acetyl)-AMC as substrate preincubated for 1 hrs followed by substrate addition and measured after 2 hrs by fluorescence based microplate reader analysis
As a rule, pIC50 stands for the negative log10 of the concentration, concentration in M.

1. CCNNC(=O)c1cc(F)c(CN2c3ccccc3C=Cc3ccncc32)cc1F; 5.15

Query: Checklist item: pIC50 tested on Histone deacetylase 3 (Homo sapiens), entry `O=C(NNCCF)c1ccc(CN2c3ccccc3C=Cc3ccncc32)cc1` , value?
Response: 5.20

Query: Item `CCNNC(=O)c1ccc(CN2c3ccccc3C=Cc3ccncc32)cc1F` with Histone deacetylase 3 (Homo sapiens) - pIC50?
Response: 5.75

Query: What reported pIC50 corresponds to `CCNNC(=O)c1ccc(CN2c3ccccc3C=Cc3ccncc32)c(F)c1` on Histone deacetylase 3 (Homo sapiens)?
Response: 5.43

----------
experimentalDetails: in vivo
measurementConditions: male, ICR, mouse, iv, 5 mg/kg
measuredQuantity: clearance at 24 h (mL/min/kg)
Quick note: give the figure in mL/min/kg, leave out the unit.

Query: State the recorded clearance at 24 h for this entry: `CCNNC(=O)c1ccc(CN2c3ccccc3C=Cc3ccncc32)cc1`
Response: 30.6

----------
Form field: IC50 (one value per entry).
measuredOn: Histone deacetylase 4 (Homo sapiens)
Sequence (P56524 whole entry): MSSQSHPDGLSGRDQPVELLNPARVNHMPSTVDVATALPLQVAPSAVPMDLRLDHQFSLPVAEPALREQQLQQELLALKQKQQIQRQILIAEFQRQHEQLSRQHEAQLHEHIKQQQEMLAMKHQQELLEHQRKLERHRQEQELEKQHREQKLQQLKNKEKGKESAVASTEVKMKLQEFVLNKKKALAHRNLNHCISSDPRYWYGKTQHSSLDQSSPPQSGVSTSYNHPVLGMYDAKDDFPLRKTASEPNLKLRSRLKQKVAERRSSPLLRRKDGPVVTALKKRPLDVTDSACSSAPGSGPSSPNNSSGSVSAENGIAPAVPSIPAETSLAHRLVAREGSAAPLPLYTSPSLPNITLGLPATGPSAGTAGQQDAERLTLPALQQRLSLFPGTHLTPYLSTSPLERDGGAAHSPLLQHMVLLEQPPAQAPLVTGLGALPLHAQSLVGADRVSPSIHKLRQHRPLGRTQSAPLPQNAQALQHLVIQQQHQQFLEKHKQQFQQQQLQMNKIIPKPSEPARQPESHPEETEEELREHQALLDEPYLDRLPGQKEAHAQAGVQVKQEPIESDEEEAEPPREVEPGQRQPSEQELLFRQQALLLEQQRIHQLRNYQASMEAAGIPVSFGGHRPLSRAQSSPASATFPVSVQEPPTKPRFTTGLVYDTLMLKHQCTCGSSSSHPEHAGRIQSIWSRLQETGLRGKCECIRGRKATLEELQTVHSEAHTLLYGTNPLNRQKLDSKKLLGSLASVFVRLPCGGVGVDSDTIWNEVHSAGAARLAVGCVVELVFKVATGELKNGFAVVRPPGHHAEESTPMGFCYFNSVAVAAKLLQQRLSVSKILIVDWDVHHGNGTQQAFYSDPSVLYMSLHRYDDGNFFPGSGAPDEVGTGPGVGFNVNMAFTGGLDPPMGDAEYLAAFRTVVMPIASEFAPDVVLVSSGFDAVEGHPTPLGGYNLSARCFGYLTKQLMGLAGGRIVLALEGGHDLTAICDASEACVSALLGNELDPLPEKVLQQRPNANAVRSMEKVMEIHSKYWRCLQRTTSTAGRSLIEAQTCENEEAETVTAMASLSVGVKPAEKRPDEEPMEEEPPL
experimentalDetails: Inhibition of recombinant HDAC4 (unknown origin) using Boc-Lys (trifluoroacetyl)AMC as substrate preincubated for 1 hrs followed by substrate addition and measured after 2 hrs by fluorescence based microplate reader analysis

Query: Using the record for `CCNNC(=O)c1cc(F)c(CN2c3ccccc3C=Cc3ccncc32)cc1F` , report its IC50.
Response: > 10 µM

Query: Tell me the measured IC50 of `CCNNC(=O)c1ccc(CN2c3ccccc3C=Cc3ccncc32)c(F)c1` , please.
Response: > 10 µM

----------
IC50: recorded values
measuredOn: Histone deacetylase 1 (Homo sapiens, UniProt Q13547)
experimentalDetails: Inhibition of recombinant HDAC1 (unknown origin) using Boc-Lys (acetyl)-AMC as substrate preincubated for 1 hrs followed by substrate addition and measured after 2 hrs by fluorescence based microplate reader analysis

Record excerpt, results attached:
1. CCNNC(=O)c1cc(F)c(CN2c3ccccc3Sc3cccnc32)cc1F; > 10 µM
2. CCNNC(=O)c1cc(F)c(CN2c3ccccc3C=Cc3ccccc32)cc1F; > 10 µM

Switching to the query record.
Query: Sample `CCNNC(=O)c1ccc(CN2c3ccccc3C=Cc3ccncc32)c(F)c1` — what was its IC50?
Response: 8.74 µM
